# maps each entry to its T/C
tested on: P388 leukemia ip, CD2F1 mice, survival T/C; assay: NCI In Vivo Anticancer Drug Screen. Data for tumor model P388 Leukemia (intraperitoneal) in CD2F1 (CDF1) mice; conditions: endpoint: median survival time; dose: 60.0 mg/kg/injection; schedule: Q01DX005 (ip); vehicle: saline with Tween-80; higher = longer survival
Toxic doses and inconclusive results are not listed.

The cases that follow already have their T/C on record.
compound | target of assay | result
COC(=O)[C@]1(CC[N+](=O)[O-])N=C(c2ccccc2)O[C@@H]1C | P388 leukemia ip, CD2F1 mice, survival T/C | 105 % of control
Brc1ccc(-c2nc3sc(-c4ccc5c(c4)OCO5)nn3c2Br)cc1 | P388 leukemia ip, CD2F1 mice, survival T/C | 100 % of control
COC1=CC2OC3OC(=O)CC3C2C(OCc2ccccc2)=C1 (stereo unspecified) | P388 leukemia ip, CD2F1 mice, survival T/C | 91 % of control
COC(=O)C1=NOC(COc2ccc([N+](=O)[O-])cc2)C1 (stereo unspecified) | P388 leukemia ip, CD2F1 mice, survival T/C | 100 % of control
O=C(Nc1ccc(Cl)cc1Cl)c1ccc2c(c1)C(=O)OC2=O | P388 leukemia ip, CD2F1 mice, survival T/C | 98 % of control
COc1cc2c(cc1C(CC(C)=O)c1cc(OC)c(OC)c(OC)c1)OCO2 (stereo unspecified) | P388 leukemia ip, CD2F1 mice, survival T/C | 100 % of control

T/C of "CCOC(=O)C1=C(Nc2ccc(F)cc2)C(=O)N(C(C)(C)C)C1" on P388 leukemia ip, CD2F1 mice, survival T/C?
100 % of control

Same for "CCCCCCCCCCCC(=O)OOC(C)(C)C"
100 % of control

* * *

test system: P388 leukemia ip, CD2F1 mice, survival T/C; assay: NCI In Vivo Anticancer Drug Screen. Data for tumor model P388 Leukemia (intraperitoneal) in CD2F1 (CDF1) mice; settings: endpoint: median survival time; dose: 12.5 mg/kg/injection; schedule: Q01DX009 (ip); vehicle: saline with Tween-80
Inconclusive results and toxic doses are left out. Rule for the calls: active = survival T/C of 150% or more; inactive = T/C below 125% in these data.
Mark one answer only. Choices: active, inactive

compound | class assignment
CC1OC(CC(=O)O)Cc2c1c(O)c1c(O)cc(-c3cc(=O)c4c(=O)c5c(c(=O)c=4c3=O)CC(CC(=O)O)OC5C)c(O)c1c2O (stereo unspecified) | inactive
O=C1c2cccc3cc([N+](=O)[O-])cc(c23)C(=O)N1CCN1CCCC1 | active
O=CNc1ccc(/C=C\c2ccnc3ccccc23)cc1 | inactive
CN(C=O)c1cc2c3c(c1)CCCN3CCC2 | inactive
C/C(CCCC(C)(C)C(=O)O)=N/Nc1ccc([N+](=O)[O-])cc1[N+](=O)[O-] | inactive
Cc1cccc2nccn12 | inactive
O=C1NC(=O)C2(CCCc3ccc(N(CCCl)CCCl)cc32)N1 (stereo unspecified) | active
CC(=O)OCCN1CCN(CC/C=C2\c3ccccc3Sc3ccc(Cl)cc32)CC1 | inactive
CCCCCCCCCCC(N)P(=O)(O)O (stereo unspecified) | inactive
CCN1c2ccccc2CC(CCN(C)Cc2ccccc2)(C(N)=O)c2ccccc21 (stereo unspecified) | inactive

Shifting focus to the compound that follows.
Please share the test call associated with "O=C(O)c1ccccc1Nc1cccc(C(F)(F)F)c1" .
inactive
